B1: EHEE_rd2_0191 (parent)
chain: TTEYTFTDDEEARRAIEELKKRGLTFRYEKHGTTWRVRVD

Variants of: B1
protocol.description: folding stability dG (cDNA display proteolysis); higher = more stable
details: PBS, room temperature
This listing pairs variants with measured folding stability dG.

These recorded examples may help you get a feel for the data.
TTEYTFTDDEEARRAIEELKKRGLAFRYEKHGTTWRVRVD | 1.95 kcal/mol
TTEYTFTDDEEARRAIEKLKKRGLTFRYEKHGTTWRVRVD | 1.74 kcal/mol
TTEYTFTDDEEARRAIEELCKRGLTFRYEKHGTTWRVRVD | 2.56 kcal/mol
TTEYTGTDDEEARRAIEELKKRGLTFRYEKHGTTWRVRVD | -0.522 kcal/mol
TTEYYFTDDEEARRAIEELKKRGLTFRYEKHGTTWRVRVD | 2.39 kcal/mol
TTEYTFTDDEEARRAIEELKKRGLTYRYEKHGTTWRVRVD | 1.73 kcal/mol
TTEYTFTDDEEARRAIEEWKKRGLTFRYEKHGTTWRVRVD | 1.94 kcal/mol
TTEYTFTDDEEARRAIEELKKRGLTFRYEKHGTTWRVDVD | 1.11 kcal/mol
TTEYTFTDDMEARRAIEELKKRGLTFRYEKHGTTWRVRVD | 1.96 kcal/mol
TTEYTFTDDEEARRAIEELKKRGLIFRYEKHGTTWRVRVD | 2.14 kcal/mol

Ask | Respond only with folding stability dG recorded for `TTEYTFTDDEEARRAIEELKKRGMTFRYEKHGTTWRVRVD`
Reply | 1.91 kcal/mol

Ask | Respond only with folding stability dG recorded for `TTEYTFTDDEEARRAIEELKKRGDTFRYEKHGTTWRVRVD`
Reply | 0.718 kcal/mol

Ask | Respond only with folding stability dG recorded for `TTEYTFTDDEEARRAIEELKKRGLTFRYEKHGTTWRVRMD`
Reply | 1.02 kcal/mol

Ask | Respond only with folding stability dG recorded for `TTEYTFTDDEEARRAIEELKKRGLTFRYYKHGTTWRVRVD`
Reply | 2.44 kcal/mol

Ask | Respond only with folding stability dG recorded for `TTEYTFTDDEEARRYIEELKKRGLTFRYEKHGTTWRVRVD`
Reply | 2.87 kcal/mol

Ask | Respond only with folding stability dG recorded for `TTEYTFTDDEEARRAIEELKKRGLKFRYEKHGTTWRVRVD`
Reply | 2.25 kcal/mol

Ask | Respond only with folding stability dG recorded for `TTEYTFTDDEEARRAIEELKKRGLTFRYEKHGTTWRFRVD`
Reply | 1.88 kcal/mol

Ask | Respond only with folding stability dG recorded for `TTEYTFTDDEEYRRAIEELKKRGLTFRYEKHGTTWRVRVD`
Reply | 1.66 kcal/mol

Ask | Respond only with folding stability dG recorded for `TTEYTFTDDECARRAIEELKKRGLTFRYEKHGTTWRVRVD`
Reply | 2.14 kcal/mol

Ask | Respond only with folding stability dG recorded for `TTEYTFTDDEEARRAIEELKKQGLTFRYEKHGTTWRVRVD`
Reply | 2.1 kcal/mol

Ask | Respond only with folding stability dG recorded for `TTEYTFTDDEEARRAIEELKKRGLTFRYEKHGTTWRPRVD`
Reply | -0.51 kcal/mol

Ask | Respond only with folding stability dG recorded for `TTEYTFTDDEEARRAIEELKKRGLTFRYEKHGTTCRVRVD`
Reply | 1.77 kcal/mol

Ask | Respond only with folding stability dG recorded for `TTEYTFTDDEEARRAIEELAKRGLTFRYEKHGTTWRVRVD`
Reply | 1.81 kcal/mol

Ask | Respond only with folding stability dG recorded for `TTEYTFTDDEEARRAIEELKKRGLTFRYEKHGTTWRVRVQ`
Reply | 2.19 kcal/mol

Ask | Respond only with folding stability dG recorded for `TTEYTFTDDHEARRAIEELKKRGLTFRYEKHGTTWRVRVD`
Reply | 1.93 kcal/mol

Ask | Respond only with folding stability dG recorded for `TTEYTFTDDEEARRAIEELKKRGLTFRYNKHGTTWRVRVD`
Reply | 1.38 kcal/mol

Ask | Respond only with folding stability dG recorded for `TTEYTFTDDEEARRAIEELKKRGLTFRDEKHGTTWRVRVD`
Reply | -0.987 kcal/mol

Ask | Respond only with folding stability dG recorded for `TTERTFTDDEEARRAIEELKKRGLTFRYEKHGTTWRVRVD`
Reply | 0.382 kcal/mol

Ask | Respond only with folding stability dG recorded for `TTEYTFTDDEEARRAIEELKKRGLTFRYEKTGTTWRVRVD`
Reply | 2.29 kcal/mol

All values here come from the MegaScale stability set (Tsuboyama et al. 2023).
